system: Saccharomyces cerevisiae; experiment: transcriptional activation domain activity (GFP:mCherry ratio, weighted mean of sorted bins, harmonized to initial dataset scale) (arbitrary fluorescence ratio units); higher = stronger transcriptional activation; conditions: beta-estradiol 1 µM; induction time 4 h
result.type: transcriptional activation domain activity

# sequence.text, result
records = [
    ("IMGLVFRRARRRTVSLVTKYLITETEVVITYIPAVAVAIFPQLNWIYWMIFYP", 65800),
    ("MYGHVWMGVLHCKLLLVGFLWVLFTLMPDMYIHGREGINSAYTIGHSFTIGFA", 47400),
    ("RGWMVYIGFLVVFYSAAGFGLSVVNNFTLLIGVYKFVYPITTTLFQLIFTQIF", 50200),
    ("MVIRYGKLNLKYHPVHCLNHFQILCLSWAFCALLDPVGLIVSILLWKLLPTIE", 69300),
    ("VPSSIPRARRLQTAMVAIWSTSIVTTFALTLFLCSFPPLWPFMLMYVIWLNYI", 49000),
    ("FIVLYLSHRQLIIVNPCYLLGHHACSLLCLLILHNFHIWLSYVGTVLFCFCFS", 78400),
    ("MASPASSTEQQRAAKRKSHRKSRNGCFQCKQRHSKVSQSSTLLAAAASNLSRT", 27100),
    ("MDTLSSSFAHILCIFFYLHPFLLFFSFSLFPFFVFATPATRTGVRLFYFFFLF", 41600),
]

---

system: Saccharomyces cerevisiae; assay: transcriptional activation domain activity (GFP:mCherry ratio, weighted mean of sorted bins, harmonized to initial dataset scale) (arbitrary fluorescence ratio units); higher = stronger transcriptional activation; conditions: beta-estradiol 1 µM; induction time 4 h
Entries and their transcriptional activation domain activity values follow.
result.type: transcriptional activation domain activity

# sequence.text, tested.system, result
records = [
    ("MFLFIYFVCVCVFSLSLLWDGVSGWVLFVLDWIGLIGGMCVWAYIIIFYEFLV", "Saccharomyces cerevisiae", 63200),
    ("MFMKHGDVSLGYEVCFCILIIITFGLSFFFFFFFHFFLFFHFWLFVSLLFFSD", "Saccharomyces cerevisiae", 41900),
    ("AAINGSANGKRRRTKEDGGEKADGRAGPKSENVVLQKTIEHIHGLLQHKSVLL", "Saccharomyces cerevisiae", 45900),
    ("LKHGMMRLDFLCKFSMYGGIERDNQFVKKATGVAFPCVFVLRCLKRPVLTESE", "Saccharomyces cerevisiae", 55100),
    ("VHPIVCLVVCLLGHIWSFHVYYCLLKIGLLFSLFPLVRLARCAIFYRRCFSYF", "Saccharomyces cerevisiae", 40200),
    ("YILARYSIFFLYYLQFSRGYIPEYLNPTLPSYEEIESWLFLKTVWFQVLIWTV", "Saccharomyces cerevisiae", 65500),
    ("SAGTAQAGKKPRILLKVNGRSYQRVDCVGRGGSGKVYKVTAENGKMFAMKRVS", "Saccharomyces cerevisiae", 45100),
    ("MNVLTFFYVVGGVFFFFTISFALPGGYIVLDLSYYNHIICATYLLLLFEFMFY", "Saccharomyces cerevisiae", 54200),
    ("ADPNGAAAATTAAAPEKKAEEPVTPAKSSAAPASTSSTPASTNTTEKKKKNRL", "Saccharomyces cerevisiae", 34700),
    ("TPLLLFFWCLCWFLSRSWYVYCFCYLNDWYNKVMMLWNLFHHHRFLLLYTRGL", "Saccharomyces cerevisiae", 35200),
    ("VQASMAADYAISQFRFLHKLLLVQGHWSYARISEMILTFFFKNIFWVFPSLWY", "Saccharomyces cerevisiae", 56100),
    ("FLLDIFLLLVPSFPFSYTPFLVTSLFLVLCDIDVFLRFIYVHIYLVTLICTFM", "Saccharomyces cerevisiae", 30400),
    ("KDKNKEKERGKHKHRRRERDGDGDGDEEDGRSSKKHKKERGQKRSEKEGGGED", "Saccharomyces cerevisiae", 42100),
    ("MFSFSFPLFLSPLPISLFFLPFALSYSLLSSHLMADICLSSTRWLSSIFFSFF", "Saccharomyces cerevisiae", 36100),
    ("ASIISQRSGIVRALSRLMIFDRKLRVKDTHLRRLQHRIVIQSLVFGAFFSCVG", "Saccharomyces cerevisiae", 54700),
    ("DSAMRAIYSFRNSYIAFILFNGSIYYYVARFFGFYHKVLDSPIVGFRWVDLHL", "Saccharomyces cerevisiae", 58300),
    ("SSRYDPVKSVFLPLDPMPLPRDFFFSFALILFCPSPFYTSLLSLYLISPLLFP", "Saccharomyces cerevisiae", 60800),
    ("KLAKKEPAAAKPKSEKPKAEKKTTEKKPVAKKATTTKKPAAAKPKAAPKPKTA", "Saccharomyces cerevisiae", 27000),
    ("MCEQHTCLFVLLSVKLLLWRLLFFVESSFLDGMELVLTGRWWAYYIYLWCLTV", "Saccharomyces cerevisiae", 54400),
    ("MRGLCRSLKLCKLFVTMFDGWMMLFSFFFFFLFLLFFYYYSCCSDGFLLCFFL", "Saccharomyces cerevisiae", 42500),
    ("SGGEGTRRRASGRGRGRGRGRNGRGARAARGDGEKKEGETTEAAAPTSGETPA", "Saccharomyces cerevisiae", 34800),
    ("DSKDKREKFRSRMVVLKSRLLFGVCDPYGVLEEGEVYVRVSVPRMGASTLKNT", "Saccharomyces cerevisiae", 67500),
    ("EAGNERRESSRRHDDTERRERRRHRSHDRGHDRERRHRRHRRSRSRDRDGGRE", "Saccharomyces cerevisiae", 34300),
    ("RTTALGVWFLSIQFFWYALYGALYIWFFFMPWEKLSVLLAFDYFMRLLLCFMF", "Saccharomyces cerevisiae", 45700),
    ("MLPQLIWGCFIFGLASILLCVTFIPNPSHGYIRMRQSYNSFKLYIFGPSFTYL", "Saccharomyces cerevisiae", 74800),
    ("IGFVDFPFSSCSFLLGYFCYSVFLCFPFLFLVFFGVIYMWSSRGFLVQSFTMI", "Saccharomyces cerevisiae", 70800),
    ("AIEQFLDNLISQDMMSSNASMNSESHLHIRSPKKQHRYTELNQRYPETHPHSN", "Saccharomyces cerevisiae", 8240),
    ("AAKGKAAAGGGTKKKGTAGAEAETPEMATPAPEGAPNAPAKKRAKKATAAAAA", "Saccharomyces cerevisiae", 36400),
    ("DSKSDATPAWSDLKTKAGKERKRLPLACIVCRRKKIRCSGEKPACKHCLRARI", "Saccharomyces cerevisiae", 41900),
]
